From: the kinase profiling compilation of Christmann-Franck et al. (2016)

Consider the following molecules; for each one, report its kinase still bound, per cent of control.
Biological target: TSSK1B (human) (UniProt Q9BXA7)
Sequence (Q9BXA7 whole entry, looked up): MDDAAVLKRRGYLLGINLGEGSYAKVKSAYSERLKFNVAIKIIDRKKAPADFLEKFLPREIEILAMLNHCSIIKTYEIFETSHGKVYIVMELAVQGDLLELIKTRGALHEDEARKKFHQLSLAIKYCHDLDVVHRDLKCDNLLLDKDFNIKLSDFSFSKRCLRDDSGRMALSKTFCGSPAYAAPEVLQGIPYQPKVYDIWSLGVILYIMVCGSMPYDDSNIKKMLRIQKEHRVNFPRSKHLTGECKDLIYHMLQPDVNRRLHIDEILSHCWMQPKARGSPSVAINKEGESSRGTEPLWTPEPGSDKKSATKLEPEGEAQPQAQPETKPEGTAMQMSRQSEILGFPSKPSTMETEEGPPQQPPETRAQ
Experiment: KINOMEscan competition binding
Conditions: compound 10.0 µM
All answers are understood in %, so give the number only.

Look up kinase still bound, per cent of control for this molecule: Cc1ccc(C(=O)Nc2cccc(C(F)(F)F)c2)cc1Nc1cncc(C(N)=O)c1 100

Field entry: Cc1cc([C@@H](C)Nc2ccccc2C(=O)O)c2nc(N3CCOCC3)cc(=O)n2c1 100

Next molecule: COc1cc(N2CCN(C)CC2)ccc1Nc1nc(N)c(C(=O)c2c(Cl)cccc2Cl)s1 87

Cool, now C=CC(=O)Nc1cccc(Oc2nc(Nc3ccc(N4CCN(C)CC4)cc3OC)ncc2Cl)c1 100

Again, but for Nc1ccc(-c2ccc3ncc4ccc(=O)n(-c5cccc(C(F)(F)F)c5)c4c3c2)cn1 100
